Each entry below lists one item and its recorded interaction score value.
Target: T1, 4H3625-AA
T1 chain: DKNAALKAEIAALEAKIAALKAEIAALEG
Experiment: two-hybrid library CCmax;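 also: natural log of median RNA to DNA barcode read ratio; higher means stronger binding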
Conditions: mean of both orientations

BINDER	interaction score
DEIAALEAEIAALKAKNAALKAEIAALEG [4H121-AA]	-0.876
DKIAALKAEIAALEAKNAALKAKIAALKG [4H2622-AA]	1.6
DKNAALEAKIAALKAENAALEAEIAALEG [4H3409-AA]	-0.625
DKIAALKAEIAALEAKIAALKAKNAALKG [4H2608-AA]	1.92
DKIAALEAKNAALKAKIAALEAKNAALKG [4H2536-AA]	-1.16
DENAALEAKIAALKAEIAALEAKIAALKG [4H1350-AA]	1.97
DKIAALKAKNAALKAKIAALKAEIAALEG [4H3049-AA]	-0.0279

Where do the numbers come from? From paper PMC10397247.
